# Test system: Entamoeba histolytica
# METHOD NOTES: Antiamoebic activity against Entamoeba histolytica HM-1:IMSS trophozoites after 72 hrs by microdilution method
# Format: functional, organism-based
pIC50: −log10 of the molar value.
Some molecules, each annotated with its measured pIC50.

Q: Fill blank: measured pIC50 of the molecule S=C(N1CCCC1)N1N=C(c2ccccc2)CC1c1ccc(C2CC(c3ccccc3)=NN2C(=S)N2CCCC2)cc1 (centres undefined) is ____.
Ans: < 5.74

Further cases:
Q: Name the reported pIC50 value associated with the molecule Cc1cccc(NC(=S)N2N=C(c3ccccc3)CC2c2ccc(C3CC(c4ccccc4)=NN3C(=S)Nc3cccc(C)c3)cc2)c1 (centres undefined)
Ans: < 5.74

Q: What does the data say about its pIC50? Entry: NC(=S)N1N=C(c2ccccc2)CC1c1ccc(C2CC(c3ccccc3)=NN2C(N)=S)cc1 (centres undefined)
Ans: 5.80

Q: Reported pIC50 for S=C(NC1CCCC1)N1N=C(c2ccccc2)CC1c1ccc(C2CC(c3ccccc3)=NN2C(=S)NC2CCCC2)cc1 (centres undefined) : what is it?
Ans: < 5.74

Reference for the values: ChEMBL document CHEMBL1152827
